test system: STING signaling pathway; experiment: Cytokine secretion in PBMC (ELISA); type: cell-based; settings: 6 h, ELISA of supernatant, read-out: TNF-α EC50

MOL | TARGET SYSTEM | EC50
CCc1nc(C)sc1C(=O)Nc1nc2cc(C(N)=O)cc(OCCCN3CCN(C(=O)CCCNC)CC3)c2n1C/C=C/Cn1c(NC(=O)c2cc(C)nn2CC)nc2cc(C(N)=O)cc(SC)c21 | STING signaling pathway | 100 to 1000 nM
CCc1nc(C)sc1C(=O)Nc1nc2cc(C(N)=O)cc(OCCCN3CCN(C(=O)C(C)(C)CCNC(=O)OCCCNC(=O)OCc4ccc(NC(=O)[C@H](CCCNC(N)=O)NC(=O)[C@@H](NC(=O)CCCCCN5C(=O)C=CC5=O)C(C)C)cc4)CC3)c2n1C/C=C/Cn1c(NC(=O)c2cc(C)nn2CC)nc2cc(C(N)=O)cc(SC)c21 | STING signaling pathway | 100 to 1000 nM

---

system: STING signaling pathway; experiment: THP1-Blue ISG reporter assay (QUANTI-Blue); assay type: cell-based, human; conditions: Homo sapiens, THP1-Blue ISG, 18 h
pEC50: −log10 of the molar value.
MEASURED ATTRIBUTE: pEC50

COMPOUND | DATA VALUE
CCc1nc(C)sc1C(=O)Nc1nc2cc(C(N)=O)cc(OCCCN3CCN(C(=O)OCCCN)CC3)c2n1C/C=C/Cn1c(NC(=O)c2cc(C)nn2CC)nc2cc(C(N)=O)cc(SC)c21 [Example 10] | > 7.00

---

test system: STING signaling pathway; assay: Cytokine secretion in PBMC (ELISA); assay type: cell-based; conditions: 6 h, read-out: IFN-β EC50
MEASURED ATTRIBUTE: EC50

MOLECULE | DATA VALUE
CCc1nc(C)sc1C(=O)Nc1nc2cc(C(N)=O)cc(OCCCN3CCN(C(=O)OCCCN)CC3)c2n1C/C=C/Cn1c(NC(=O)c2cc(C)nn2CC)nc2cc(C(N)=O)cc(SC)c21 [Example 10] | 100 to 1000 nM

---

System: STING signaling pathway
Experiment: THP1-Blue ISG reporter assay (QUANTI-Blue)
Assay type: cell-based, human
Settings: Homo sapiens; THP1-Blue ISG cells, 18 h incubation, QUANTI-Blue OD 620-655 nm; read-out: EC50
Experimental: In this experiment, THP1-Blue™ ISG (interferon-stimulated genes) cell line (InvivoGen, catalog number: thp-isg) was used to evaluate the activating of interferon signaling pathway after the treatment by the compounds. […] OD (620-655 nm) value was read on a Microplate Reader, and the EC50 value was calculated by using GraphPad to fit the dose-effect curve. […]
MEASURED ATTRIBUTE: EC50

MOL | TARGET SYSTEM | DATA VALUE
CCc1nc(C)sc1C(=O)Nc1nc2cc(C(N)=O)cc(OC)c2n1C/C=C/Cn1c(NC(=O)c2cc(C)nn2CC)nc2cc(C(N)=O)cc(OCCCN3CCNCC3)c21 | STING signaling pathway | 100 to 1000 nM
CCc1nc(C)sc1C(=O)Nc1nc2cc(C(N)=O)cc(SC)c2n1C/C=C/Cn1c(NC(=O)c2c(F)c(C)nn2CC)nc2cc(C(N)=O)cc(OCCCN3CCN(C(=O)OCCCC4CCNCC4)CC3)c21 | STING signaling pathway | < 100 nM
CCc1nc(C)sc1C(=O)Nc1nc2cc(C(N)=O)cc(OCCCN3CCN(C(=O)CCN)CC3)c2n1C/C=C/Cn1c(NC(=O)c2cc(C)nn2CC)nc2cc(C(N)=O)cc(SC)c21 | STING signaling pathway | < 100 nM
